Consider the following compounds; for each one, report its activation.
testSystem: Cellular tumor antigen p53 (Homo sapiens) (UniProt P04637)
Sequence (P04637 whole entry, looked up): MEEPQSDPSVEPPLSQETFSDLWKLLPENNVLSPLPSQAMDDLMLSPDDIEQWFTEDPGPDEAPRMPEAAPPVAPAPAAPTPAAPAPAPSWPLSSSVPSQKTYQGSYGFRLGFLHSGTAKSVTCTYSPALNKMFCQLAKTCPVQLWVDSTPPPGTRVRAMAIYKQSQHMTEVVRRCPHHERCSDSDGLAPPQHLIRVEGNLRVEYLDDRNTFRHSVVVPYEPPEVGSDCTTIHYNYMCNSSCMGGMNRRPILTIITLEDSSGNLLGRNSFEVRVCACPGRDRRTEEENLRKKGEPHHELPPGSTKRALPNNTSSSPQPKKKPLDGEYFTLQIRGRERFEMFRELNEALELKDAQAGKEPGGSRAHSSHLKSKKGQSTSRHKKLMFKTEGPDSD
experimentDescription: Primary qHTS for small molecule compounds that upregulate eGFP-tagged delta133p53alpha (in N-terminal) cells. (AID 2060322); note: nearly all actives have a fitted effect of over 75% in size;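 for activation: cells pre-induced with doxycycline then dosed without doxycycline; 0% = DMSO vehicle and 100% = reference activator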
experimentalParameters: NCI-H358 eGFP-delta133p53alpha fluorescence, 24 h; active compounds read high
Results filed as inconclusive are left out.
Answers are plain numbers, in %.

compound: COc1ccccc1N1CCN(CCCNc2c(C)c(=O)n(C)c(=O)n2C)CC1
unitTag: %
reportedResult: -0.789
--
compound: C=C1C(=CC=C2CCC[C@]3(C)[C@@H]([C@H](C)CCCC(C)(C)O)CC[C@@H]23)C[C@@H](O)C[C@@H]1O
unitTag: %
reportedResult: -4.26
--
compound: CC(C)(C)c1ccc(S(=O)(=O)NCc2ccc(C(=O)Nc3cccnc3)cc2)cc1
unitTag: %
reportedResult: 1.91
--
compound: COc1ccc2c(c1)C[C@H](C(=O)Nc1ccc(-c3cn[nH]c3)cc1OCCN(C)C)CO2
unitTag: %
reportedResult: -0.893
--
compound: CNC(=O)c1c(F)cccc1Nc1nc(Nc2cc3c(cc2OC)CCN3C(=O)CN(C)C)nc2[nH]ccc12
unitTag: %
reportedResult: 42.7

// each compound listed below needs its activation
1. CC1(C)CC[C@]2(CO[C@@H]3O[C@H](CO)[C@@H](O)[C@H](O)[C@H]3O)[C@@H](O)C[C@]3(C)C(=CCC4[C@@]5(C)CC[C@H](O[C@@H]6O[C@H](CO[C@@H]7O[C@H](CO[C@@H]8OC[C@@H](O)[C@H](O)[C@H]8O)[C@@H](O)[C@H](O)[C@H]7O)[C@@H](O)[C@H](O)[C@H]6O)C(C)(C)C5CC[C@]43C)[C@@H]2C1 (some centres not stated)
2. CCOC(=O)CN1CCCC1=O

1. -2.68
2. -0.837

* * *

testSystem: Retinaldehyde dehydrogenase 3 (Homo sapiens)
experimentDescription: qHTS for Inhibitors of the Aldehyde Dehydrogenase Family (ALDH1A3) Validation screen (AID 2061312); note: nearly all actives have a fitted effect of over 45% in size
experimentalParameters: ALDH1A3 enzyme inhibition qHTS validation, fluorescence; series mostly up to 84.7 µM
Results filed as inconclusive are left out. Calls of active or inactive are those of the source. The call rests on the fitted dose curve; in most records, active means well fitted inhibition curve with a large enough effect; inconclusive means small, poorly fitted or top-dose-only effect; inactive means no such curve, though single readings can be large or run the other way.
Please answer using one outcome listed in Yes for active, No for inactive

molecule: OC[C@H]1O[C@@H](n2cnc3cncnc32)[C@H](O)[C@@H]1O
testSystem: Retinaldehyde dehydrogenase 3 (Homo sapiens)
labelClass: No
//
molecule: Cn1cc(S(=O)(=O)c2ccc(Cl)cc2)c2cccc(N3CCNCC3)c21
testSystem: Retinaldehyde dehydrogenase 3 (Homo sapiens)
labelClass: No
//
molecule: Cc1onc(-c2c(Cl)cccc2Cl)c1C(=O)N[C@@H]1C(=O)N2[C@@H]1SC(C)(C)[C@@H]2C(=O)O
testSystem: Retinaldehyde dehydrogenase 3 (Homo sapiens)
labelClass: No
//
molecule: C=CC(=O)N1CC(N2CCN(C(=O)CNc3cc(C4CC4)c(Cl)cc3O)CC2)C1
testSystem: Retinaldehyde dehydrogenase 3 (Homo sapiens)
labelClass: Yes
//
molecule: CCCN(CC1CC1)c1nc(C)nc(Nc2c(Cl)cc(Cl)cc2Cl)c1Cl
testSystem: Retinaldehyde dehydrogenase 3 (Homo sapiens)
labelClass: No

# outcome recorded in this test, key = CC1C(=O)N(C)C(=O)c2nc[nH]c21 (stereo not given)
No

Would you kindly repeat that for O=C(CNC(=O)c1cccc(C(F)(F)F)c1)N[C@@H]1CCN(Cc2ccc(Cl)cc2)C1 ?
No

Further, for COc1cc(OC)c2c(=O)[nH]c(-c3cc(C)c(OCCO)c(C)c3)nc2c1 ?
No

What do you have for CC(C)c1cc(-c2n[nH]c(=O)n2-c2ccc3c(ccn3C)c2)c(O)cc1O ?
No

Thanks! And OCCn1cc(-c2cnc3nnn(Cc4ccc5ncccc5c4)c3n2)cn1 ?
No

* * *

testSystem: Cellular tumor antigen p53 (Homo sapiens)
experimentDescription: Primary qHTS for small molecule compounds that upregulate eGFP-tagged delta133p53alpha (in N-terminal) cells. (AID 2060322); note: nearly all actives have a fitted effect of over 75% in size;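 for activation: cells pre-induced with doxycycline then dosed without doxycycline; 0% = DMSO vehicle and 100% = reference activator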
experimentalParameters: NCI-H358 eGFP-delta133p53alpha fluorescence, 24 h; active compounds read high
From the text: Assay Development and Screening Technology National Center for Advancing Translational Sciences (NCATS), National Institute of Health (NIH), Rockville, Maryland Cellular senescence (CS) is one of the hallmarks of aging and age-related diseases. […] Here we report the development and validation of a cell-based quantitative high throughput screening (qHTS) assay in 1,536-well format. […]
Results filed as inconclusive are left out.
Label NOT MET if activation falls below -10%; label MET in every other case.

Would you please look over these solved cases?
compound: Cc1c(C(=O)NCCO)[n+](=O)c2ccccc2n1[O-]
testSystem: Cellular tumor antigen p53 (Homo sapiens)
labelClass: NOT MET
--
compound: COC(=O)CCc1cc2ccoc2c(OC)c1O[C@@H]1O[C@H](CO)[C@@H](O)[C@H](O)[C@H]1O
testSystem: Cellular tumor antigen p53 (Homo sapiens)
labelClass: NOT MET
--
compound: Cc1nc(N=Nc2cc(S(=O)(=O)O)c3cc([N+](=O)[O-])cc(S(=O)(=O)O)c3c2)c(COP(=O)(O)O)c(C=O)c1O
testSystem: Cellular tumor antigen p53 (Homo sapiens)
labelClass: NOT MET
--
compound: CC(C)=CC1C[C@](C)(O)[C@@H]2[C@H]3CCC4[C@@]5(C)CC[C@H](O[C@@H]6OC[C@H](O)[C@H](O[C@@H]7O[C@H](CO[C@@H]8O[C@H](CO)[C@@H](O)[C@H](O)[C@H]8O)[C@@H](O)[C@H](O)[C@H]7O)[C@H]6O[C@@H]6O[C@@H](C)[C@H](O)[C@@H](O)[C@H]6O)C(C)(C)[C@@H]5CC[C@@]4(C)[C@@]34CO[C@@]2(C4)O1 (stereo not given in full)
testSystem: Cellular tumor antigen p53 (Homo sapiens)
labelClass: MET
--
compound: CC(C)/C=C1\NC(=O)C(C(C)C)n2c1nc1ccccc1c2=O (stereo not given)
testSystem: Cellular tumor antigen p53 (Homo sapiens)
labelClass: NOT MET

Has COC(=O)c1sccc1S(=O)(=O)Nc1ccc(Nc2ccccc2)cc1OC a recorded activation greater than or equal to -10%?
MET

Now consider CCCC(=O)O[C@]1(C(=O)CCl)[C@@H](C)C[C@H]2[C@@H]3CCC4=CC(=O)C=C[C@]4(C)[C@@]3(F)C(=O)C[C@@]21C and answer again.
MET

Field entry: COc1cc(Nc2ccc([N+](=O)[O-])cc2C(=O)O)cc2ccccc12
NOT MET

Try this compound too: Cc1cc2c(F)c(Oc3ncnn4cc(OC[C@@H](C)O)c(C)c34)ccc2[nH]1
NOT MET

Again, but for CC(=O)OCC(=O)O[C@@H]1[C@H]2[C@@H](OC(=O)c3ccccc3)[C@@H](C)C[C@]2(O)[C@H](OC(C)=O)C2(C)[C@H]3CC(C)(C)C(=O)[C@@H]3CC1(OC(C)=O)[C@@H]2OC(C)=O (stereo not given in full)
NOT MET

Again, but for CCOP(=O)(Cc1ccc(C(=O)Nc2ccc(Br)cc2C#N)cc1)OCC
MET

Subsequent entry: CC(C(=O)O)c1ccc2c(c1)Cc1cccnc1O2 (stereo not given)
NOT MET

Follow-up entry: C[C@H]1CC[C@@]2(OC1)O[C@H]1CC3C4CC=C5C[C@H](O)C[C@@H](O[C@@H]6O[C@@H](C)[C@H](O)[C@@H](O)[C@H]6O[C@@H]6O[C@@H](C)[C@H](O)[C@@H](O)[C@H]6O)[C@]5(C)C4CC[C@]3(C)[C@H]1[C@@H]2C (stereo not given in full)
NOT MET

Same lookup for Nc1ncnc2c([C@@H]3N[C@H](CO)[C@@H](O)[C@H]3O)c[nH]c12 , please.
MET

How about this compound: COc1cc(C(=O)N2CCCCCCC2)cc(OC)c1OC
MET

* * *

Hi there, I'd appreciate the recorded Potency for every entry that follows.
testSystem: Cellular tumor antigen p53 (Homo sapiens)
experimentDescription: Primary qHTS for small molecule compounds that upregulate eGFP-tagged delta133p53alpha (in N-terminal) cells. (AID 2060322); note: nearly all actives have a fitted effect of over 75% in size; note: potency is the fitted concentration of half-maximal effect;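 for activation: cells pre-induced with doxycycline then dosed without doxycycline; 0% = DMSO vehicle and 100% = reference activator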
experimentalParameters: NCI-H358 eGFP-delta133p53alpha fluorescence, 24 h
Records with an inconclusive call do not appear. Active and inactive are the calls of the source. Calls follow the shape of the dose curve; as a rule, active = well fitted activation curve with a large enough effect; inconclusive = small, poorly fitted or top-dose-only effect; inactive = no such curve, though single readings can be large or run the other way.

Below, each entry is followed by its recorded Potency result.
compound: O=[N+]([O-])c1cccc2[nH]c(CNc3nc(N4CCOCC4)nc4c3ncn4-c3ccsc3)nc12
recordedMetric: Potency
reportedResult: 0.301 µM (active)
--
compound: CCN(CC)c1ccc2c(O)c(C=Nc3ccc(CC(=O)O)c(-c4c5c(nc6ccccc46)CCC(C(=O)NN)C5)c3)c(=O)oc2c1 (stereo not drawn)
recordedMetric: Potency
reportedResult: 5.36 µM (active)
--
compound: O=C1C(Cl)=C(NCCN2CCOCC2)C(=O)c2ncccc21
recordedMetric: Potency
reportedResult: 27.3 µM (active)

Can you give me Potency for all of these, one by one?
1. O=C1NC(=O)C(c2cnc3ccccn23)=C1c1cn2c3c(cc(F)cc13)CN(C(=O)N1CCCCC1)CC2
2. CNC(=O)c1ccccc1Nc1nc(Nc2ccc3c(c2OC)CCC[C@@H](N2CCN(CCO)CC2)C3)ncc1Cl
3. O=[N+]([O-])c1ccc(Nc2ccccc2-c2ccccc2)c2nonc12

1. 30.1 µM (active)
2. 9.53 µM (active)
3. 9.68 µM (active)

Below are 5 compounds. Give each one its Potency.
1. Oc1ccc(-c2ccc(-c3cc(Nc4cccc(CNC5CC5)c4)n[nH]3)cc2)c(O)c1
2. CN(C)CC1CCn2c(c(C3=C(c4cn(C)c5ccccc45)C(=O)NC3=O)c3ccccc32)C1 (stereo not drawn)
3. C=C[C@@]1(C)C=C2C(=O)C(O)=C3[C@](C)(C(=O)O)CC[C@@H]4C[C@]34[C@]2(O)C(=O)C1
4. CC(NC(=O)c1ccccc1N=Cc1c(O)ccc2ccccc12)c1ccccc1 (stereo not drawn)
5. CC(=O)Nc1sc2c(c1-c1nc3ccccc3s1)CNC2

1: 43.2 µM (active); 2: 34.3 µM (active); 3: 6.59 µM (active); 4: 43.2 µM (active); 5: 26.9 µM (active)
